Origin of values: ChEMBL document CHEMBL3407482

Experiment: Antioxidant activity assessed as superoxide radical scavenging activity after 5 mins by nitrotetrazolium blue chloride assay
Assay type: physicochemical
Readout: IC50 (µM)

COc1cc(/C=C/C(=O)/C=C/c2ccc(O)c(OC)c2)ccc1O : 72.6
COc1ccc(O)c(/C=C/C(=O)/C=C/c2ccc(OC)c(OC)c2)c1 : 231
COc1cc(/C=C/C(=O)/C=C/c2cc(OC)c(O)c(OC)c2)ccc1O : 124

I = COc1cc(/C=C/C(=O)/C=C/c2ccc(C)c(C)c2)ccc1O
II = CCOc1cc(/C=C/C(=O)/C=C/c2ccc(O)c(OC)c2)ccc1O
Exam item: For the two items I and II , which reports the higher IC50 value? Identify your selection by its label.
Marked response: I
(I: 178 µM, II: 122 µM)
